# System: HTT
# assay: HiBiT protein abundance assay, HTT HiBiT K562 cell line
# Type: cell-based, human
# settings: HiBiT K562 cell line, 24 hours, top dose 10 μM; read-out: Effect on protein abundance, HTT (IC50 category)
pIC50: −log10 of the molar value.
Would you kindly list pIC50 for each of these molecules?

I have this molecule here, Cc1cn2cc(-c3cc(F)c4c(=O)n(C5CCNC6(CC6)C5)ccc4c3)c(O)c(C)c2n1 (stereo not drawn) [Compound 421] , and I need its recorded pIC50.
< 5.00

Let us now turn to Cn1cc2c(=O)n(-c3ccc4c(=O)n(C5CCNCC5)ccc4c3)ccc2n1 [Compound 530]
< 5.00

What about Cc1c(O)c(-c2ncc3c(=O)n([C@H]4CCN[C@@H](C)C4)ccc3n2)cc2cn(C)nc12 [Compound 1441] ?
> 7.00

What about Cc1cn2nc(-c3ccc4c(=O)n([C@@H]5CCNC[C@H]5F)ncc4c3)cc(C)c2n1 [Compound 379] ?
6.00 to 7.00

One more molecule: Cn1cc2cc(-c3ccc4c(=O)n(C5CCNCC5)cnc4c3)ccc2n1 [Compound 182]
5.00 to 6.00

Here is the next molecule: Cc1cn2cc(-c3cc(F)c4c(=O)n(C5CCNC6(CC6)C5)ccc4c3)cc(Cl)c2n1 (stereo not drawn) [Compound 413]
> 7.00

Also need Cc1cn2cc(-c3ccc4c(=O)n(C5CCN(C)CC5)cnc4c3)cc(F)c2n1 [Compound 207] , thanks.
5.00 to 6.00

Another: CNc1cc(-c2cc(C#N)c3nc(C)cn3c2)cc2ncn(C3CCNCC3)c(=O)c12 [Compound 363]
< 5.00

And what about the molecule Cc1cn2cc(-c3ccc4c(=O)n(C5CCNC5)cc(C)c4c3)cc(C#N)c2n1 (stereo not drawn) [Compound 442] ?
< 5.00

Record: Cc1cn2cc(-c3cc(F)c4c(=O)n([C@H]5CCNC5)ccc4c3)cc(F)c2n1 (single isomer, unassigned) [Compound 396]
6.00 to 7.00

Proceed to Cc1c(O)c(-c2ncc3c(=O)n([C@@H]4C[C@H]5C[C@@H]4CN5)ccc3n2)cc2cn(C)nc12 [Compound 1445]
< 5.00

Query Cc1c(O)c(-c2ncc3c(=O)n([C@H]4[C@@H]5CNC[C@@H]54)ccc3n2)cc2cn(C)nc12 [Compound 1326] next
6.00 to 7.00

Also Cc1cn2cc(-c3ccc4c(=O)n(C5CCN(C)CC5)cnc4c3)ncc2n1 [Compound 308] ?
5.00 to 6.00

Ok, now Cc1cn2nc(-n3cnc4cc(N5CCNCC5)ccc4c3=O)cc(C)c2n1 [Compound 241]
5.00 to 6.00

Item: Cn1cc2cc(-c3ccc4c(=O)n(C5CCNCC5)cnc4c3)cc(F)c2n1 [Compound 206]
6.00 to 7.00

----------
# Tested on: MYB mRNA
# assay: RT-qPCR splicing assay, MYB canonical junction (CJ) and alternative junction (AJ) mRNA
# Assay type: cell-based, human
# settings: Homo sapiens; increase in MYB alternative junction (AJ) mRNA, RT-qPCR; read-out: MYB AJ AC50
Could you please report measured AC50 for the items listed next?

Query for MYB mRNA: what AC50 does the record show for Cc1cn2cc(-c3ccc4c(c3)CCN(C3CCNCC3)C4=O)c(C)cc2n1 [Compound 218] ?
1000 to 10000 nM

What would you report for Cc1cn2nc(-c3ccc4nc(NC5CCNCC5)[nH]c(=O)c4c3)cc(C)c2n1 [Compound 192] ?
> 10000 nM

Let us now turn to Cn1cc2cc(-c3ncc4c(=O)n(C5CCNCC5)ccc4n3)cc(F)c2n1 [Compound 1212]
< 100 nM

Then what about the compound Cn1cc2cc(-c3ccc4c(=O)n(C5CCNCC5)cnc4c3)ccc2n1 [Compound 182] ?
100 to 1000 nM

Let us now turn to CN[C@H]1CC[C@@H](n2ccc3nc(-c4cc5cn(C)nc5c(C)c4O)ncc3c2=O)C1 [Compound 1478]
100 to 1000 nM

Now try Cc1cn2nc(-c3ccc4c(=O)n(C5CCN(C)CC5)ncc4c3)cc(C)c2n1 [Compound 265] .
100 to 1000 nM

Proceed to CN1CCN(c2ccc3nc(-c4ccc5nn(C)cc5c4)[nH]c(=O)c3c2)CC1 [Compound 108]
> 10000 nM

Also need Cc1cn2cc(-c3nc(C)c4c(=O)n([C@H]5CCN[C@@H](C)C5)ccc4n3)cc(F)c2n1 [Compound 1501] , thanks.
< 100 nM
